# Test system: DU-145 prostate
# test: NCI tumour cell line growth inhibition, 48 h
Would you mind telling me the reported TGI of each entry?

                              sample_smiles     study_target  endpoint_value
0  Oc1ccc(Br)cc1/C=N/NC(=S)NC12CC3CC(CC(C3)C1)C2  DU-145 prostate         6.73 µM
1                   CCN(CC)Cc1ccc2cccnc2c1O  DU-145 prostate        > 100 µM
2  O=C(CSCC(=O)N/N=C/c1cccc(OCc2ccccc2)c1)N/N=C/c1cccc(OCc2ccccc2)c1  DU-145 prostate        > 100 µM

# evaluate next
What value of measured TGI is listed for O=c1oc2ccccc2cc1-c1nnc(-c2ccccc2)s1 ?
> 100 µM

* * *

# Test system: SK-MEL-2 melanoma
# test: NCI tumour cell line growth inhibition, 48 h
readout_kind: TGI

                              sample_smiles  endpoint_value
0             CCOC(=O)C1=C(NC(C)(C)C)OCC1=O        > 100 µM
1  O=C(NCCCNC(=O)OCc1ccc2c(Br)cc(Br)c(O)c2n1)OCc1ccc2c(Br)cc(Br)c(O)c2n1        > 100 µM
2               CCc1ccc(/C(C)=N/NC(N)=S)cc1        > 100 µM
3  CN(C)[C@@H]1C(=O)C(C(=O)NCNCCCC(=O)O)=C(O)[C@@]2(O)C(=O)C3=C(O)c4c(O)cccc4[C@@](C)(O)[C@H]3C[C@@H]12        > 100 µM
4        CCCCOP(=O)(OCCCC)/C(C#N)=C/c1ccco1        > 100 µM

What value of measured TGI is listed for CCc1ccccc1-n1c2nc(=O)n(C)c(=O)c-2nc2ccccc21 ?
39.1 µM

* * *

# System: NCI-H226 lung
# test: NCI tumour cell line growth inhibition, 48 h
readout_kind: GI50

Provide the reported GI50 of each entry below, same order.
1. CCn1c(-c2nonc2N)nc2c(C#CC(C)(C)O)nc(O[C@@H](CN)c3ccccc3)cc21
2. CCOC(=O)CNC(=O)CCCn1c(=O)c2c3ccccc3n(C)c2n2nnc(-c3ccccc3)c12
3. COc1cccc2c1cc([N+](=O)[O-])c1c(C(=O)O)cc3c(c12)OCO3
4. COc1cc(-c2nn(C(=O)NS(=O)(=O)c3ccc(C)cc3)cc2-c2ccncc2)ccc1Cl

0.624 µM
25.1 µM
20 µM
2.88 µM

Provide the reported GI50 of each entry below, same order.
1. CCN(CC)CCCCCOc1cc(O)c2c(=O)cc(-c3ccccc3)oc2c1
2. Cc1ccc2[nH]c(C(=O)NN3C(=O)CSC34CCCC(C)C4)c(-c3ccccc3)c2c1 (centres undefined)
3. O=C(c1ccco1)c1c(C(F)(F)F)nc2cc(C(F)(F)F)ccc2[n+]1[O-]
4. CS(=O)c1ccc(-c2nc(-c3ccc(F)cc3)c(-c3ccncc3)[nH]2)cc1 (centres undefined)
5. CCOC(=O)N1C/C(=C/c2ccc(OC)cc2)C(=O)/C(=C/c2ccc(OC)cc2)C1

["10.5 µM", "18.4 µM", "> 100 µM", "24.7 µM", "3.29 µM"]

* * *

# Tested on: OVCAR-4 ovarian
# test: NCI tumour cell line growth inhibition, 48 h; in the data active = GI50 below about 0.43 µM; inactive = the rest
Choose one outcome from this list and give only that: yes = active, no = inactive

The following molecules have reported results that may help.
In [3]: df
Out[3]:
                                   molecule  group
0  CN1CCN(Cc2ccc(NC(=O)c3[nH]ncc3Nc3ncnc4sccc34)cc2)CC1    yes
1  COc1ccc(NC(=O)Nc2ccc(Nc3nc(C)cc(Nc4ccc(C)cc4)n3)cc2)cc1     no
2  CS(=O)c1ccc(-c2nc(-c3ccc(F)cc3)c(-c3ccncc3)[nH]2)cc1 (stereo not drawn)     no
3  CCCCCCNC(=O)Oc1ccc(/C(=C(\C)c2ccccc2)c2ccc(OCCN3CCCCC3)cc2)cc1     no
4  Cc1[nH]nc2c1N=C(c1ccccc1F)c1cc(C#N)ccc1N2     no

Dear colleague, could you share the recorded outcome for O=C(c1ccco1)c1c(C(F)(F)F)nc2cc(C(F)(F)F)ccc2[n+]1[O-] when you have a moment?
no

Dear colleague, could you share the recorded outcome for O=C(NCCCNC(=O)OCc1ccc2c(Br)cc(Br)c(O)c2n1)OCc1ccc2c(Br)cc(Br)c(O)c2n1 when you have a moment?
no

Dear colleague, could you share the recorded outcome for COc1cc(/C=C2\CC3C4CC=C5C[C@@H](N6CCCC6)CC[C@]5(C)C4CC[C@]3(C)[C@H]2OC(C)=O)ccc1OCCN1CCCCC1 (stereo partly drawn) when you have a moment?
no
